Hello, the source for this data is ChEMBL document CHEMBL3044614, in case you need it.

Target: Prostaglandin G/H synthase 2 (Homo sapiens)
Sequence (whole entry): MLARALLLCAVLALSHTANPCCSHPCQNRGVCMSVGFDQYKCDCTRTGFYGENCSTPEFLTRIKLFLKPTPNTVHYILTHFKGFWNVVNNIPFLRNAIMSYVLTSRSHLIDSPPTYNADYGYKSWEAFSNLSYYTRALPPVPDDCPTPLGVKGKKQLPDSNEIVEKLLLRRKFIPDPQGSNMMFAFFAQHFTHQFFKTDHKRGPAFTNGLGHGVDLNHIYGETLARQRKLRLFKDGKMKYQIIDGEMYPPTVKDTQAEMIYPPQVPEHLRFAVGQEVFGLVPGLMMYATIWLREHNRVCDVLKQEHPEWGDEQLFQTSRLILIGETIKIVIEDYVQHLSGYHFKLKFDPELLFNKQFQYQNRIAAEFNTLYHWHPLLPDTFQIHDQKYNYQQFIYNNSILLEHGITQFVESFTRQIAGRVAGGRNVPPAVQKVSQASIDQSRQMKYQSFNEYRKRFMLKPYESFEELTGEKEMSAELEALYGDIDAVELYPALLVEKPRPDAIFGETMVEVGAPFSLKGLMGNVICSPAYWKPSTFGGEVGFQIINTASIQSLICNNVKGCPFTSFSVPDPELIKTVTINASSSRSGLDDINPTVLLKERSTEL
Experiment: Inhibition of cyclooxygenase-2 in Homo sapiens (human) whole blood assessed as LPS-induced PGE2 production at 10 uM incubated 15 min prior to LPS challenge measured after 24 hr by enzyme immunoassay
The source made the active and inactive calls. The rule behind the calls is not given here.
recordedMetric: inhibition

smilesNotation: Nc1cc(-c2ccc(Cl)cc2)cc(-c2ccc(Cl)cc2)c1
valueObserved: 76%
--
smilesNotation: CCOc1ccc(-c2cc(N)cc(-c3ccccc3)c2)cc1
valueObserved: inactive
--
smilesNotation: Nc1cc(-c2ccccc2)cc(-c2ccc(Cl)cc2)c1
valueObserved: 85%
--
smilesNotation: CCOc1ccc(-c2cc(N)cc(-c3ccc(OCC)cc3)c2)cc1
valueObserved: inactive
--
smilesNotation: COc1ccc(-c2cc(N)cc(-c3ccccc3)c2)cc1
valueObserved: inactive

Q: inhibition of Nc1cc(-c2ccccc2)cc(-c2ccccc2)c1 on Prostaglandin G/H synthase 2 (Homo sapiens)?
A: 68%
